Form field: pIC50 (one value per entry).
Target chain: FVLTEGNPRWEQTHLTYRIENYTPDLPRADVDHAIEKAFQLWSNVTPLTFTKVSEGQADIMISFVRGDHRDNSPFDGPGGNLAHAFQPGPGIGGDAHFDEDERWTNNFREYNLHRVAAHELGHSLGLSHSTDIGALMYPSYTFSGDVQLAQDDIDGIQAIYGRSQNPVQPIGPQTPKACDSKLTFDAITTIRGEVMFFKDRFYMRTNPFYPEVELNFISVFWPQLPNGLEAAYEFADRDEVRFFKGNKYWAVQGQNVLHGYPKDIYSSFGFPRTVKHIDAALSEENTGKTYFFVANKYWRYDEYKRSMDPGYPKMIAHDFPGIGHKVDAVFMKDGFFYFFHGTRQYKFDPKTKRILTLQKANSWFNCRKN
Reminder that pIC50 is minus the log10 of a molar concentration.

Observe how each entry below is paired with its result.
IN: Please look up its pIC50: `COc1ccc(CNC(=O)c2cc3c(=O)n(CCOc4ccc(Br)cc4)c(=O)n(C)c3s2)cc1`
OUT: 4.52

IN: Please look up its pIC50: `COc1ccc(CNC(=O)c2cc3c(=O)n(Cc4cccc(OC)c4)c(=O)n(C)c3s2)cc1`
OUT: 4.52

IN: Please look up its pIC50: `COc1cccc(CNC(=O)c2cc3c(=O)n(Cc4ccc(S(=O)(=O)N5CCC(C)CC5)cc4)c(=O)n(C)c3s2)c1`
OUT: 4.52

IN: Please look up its pIC50: `COc1ccc(CNC(=O)c2cc3c(=O)n(Cc4ccc([N+](=O)[O-])nc4)c(=O)n(C)c3s2)cc1`
OUT: 5.00

In the following, a different molecule is considered.
IN: Please look up its pIC50: `COC(=O)c1ccc(Cn2c(=O)c3cc(C(=O)NCc4ccc(OC)cc4)sc3n(C)c2=O)cc1OC`
OUT: 4.52
